In this section we review reported fold-change of IC50 of the mutant relative to WT values for a set of compounds.
System: HIV-1 RT mutant K101E/M184V
PROTOCOL_TEXT: single round infection assay, K101E/M184V
Format: cell-based
EXPERIMENTAL_SETUP: K101E/M184V vs WT
Protocol: The human osteosarcoma cell line, HOS, was obtained from Dr. Richard Schwartz (Michigan State University, East Lansing, MI) and grown in Dulbecco’s modified Eagle’s medium (Invitrogen, Carlsbad, CA) supplemented with 5 % (v/v) fetal bovine serum, 5 % newborn calf serum, and penicillin (50 units/ml) plus streptomycin (50 µg/ml; Quality Biological, Gaithersburg, MD). […]
No unit in the answer, please; the number alone is enough.

fold-change of IC50 of the mutant relative to WT for Cc1cc(/C=C/C#N)cc(C)c1Nc1nc(Nc2ccc(F)cc2)c2nc[nH]c2n1 ?
4

fold-change of IC50 of the mutant relative to WT for COc1ccc(Cn2cnc3c(Nc4ccc(C#N)cc4)nc(Nc4c(C)cc(/C=C/C#N)cc4C)nc32)cc1 ?
3

fold-change of IC50 of the mutant relative to WT for Cc1cc(/C=C/C#N)cc(C)c1Nc1nc(Nc2ccc(C#N)cc2)ncc1[N+](=O)[O-] ?
2

fold-change of IC50 of the mutant relative to WT for Cc1cc(/C=C/C#N)cc(C)c1Nc1nc(Nc2ccc3scnc3c2)c2nc[nH]c2n1 ?
6

fold-change of IC50 of the mutant relative to WT for Cc1cc(/C=C/C#N)cc(C)c1Nc1nc(Nc2ccc(C#N)cc2)c2nc[nH]c2n1 ?
2

fold-change of IC50 of the mutant relative to WT for Cc1cc(/C=C/C#N)cc(C)c1Nc1nc(Nc2ccc(C(F)(F)F)cc2)c2nc[nH]c2n1 ?
2

fold-change of IC50 of the mutant relative to WT for COc1ccc(Nc2nc(Nc3c(C)cc(/C=C/C#N)cc3C)nc3[nH]cnc23)cc1 ?
2

----------
System: HIV-1 RT mutant P236L
PROTOCOL_TEXT: single round infection assay, P236L
Assay type: cell-based
EXPERIMENTAL_SETUP: Human immunodeficiency virus 1
In this section we review reported pIC50 values for a set of compounds.
By convention, pIC50 is the negative base-10 log of a molar concentration.

Cc1cc(/C=C/C#N)cc(C)c1Nc1nc(Nc2ccc(C#N)cc2)nc2[nH]cnc12: 9.06
CC(=O)c1ccc(Nc2nc(Nc3c(C)cc(/C=C/C#N)cc3C)nc3[nH]cnc23)cc1: 9.82
COc1ccc(Cn2cnc3c(Nc4ccc(C#N)cc4)nc(Nc4c(C)cc(/C=C/C#N)cc4C)nc32)cc1: 9.10
COc1ccc(Nc2nc(Nc3c(C)cc(/C=C/C#N)cc3C)nc3[nH]cnc23)cc1: 9.70

pIC50 for Cc1cc(/C=C/C#N)cc(C)c1Nc1ncc2ncn(-c3ccc(C#N)cc3)c2n1 ?
8.54

pIC50 for Cc1cc(/C=C/C#N)cc(C)c1Nc1nc(Nc2ccc(F)cc2)c2nc[nH]c2n1 ?
8.92

pIC50 for Cc1cc(/C=C/C#N)cc(C)c1Nc1nc(Nc2ccc(C(F)(F)F)cc2)c2nc[nH]c2n1 ?
9.05

pIC50 for Cc1cc(/C=C/C#N)cc(C)c1Nc1nc(Nc2ccc3scnc3c2)c2nc[nH]c2n1 ?
9.49

pIC50 for Cc1cc(/C=C/C#N)cc(C)c1Nc1nc(Nc2ccc(C#N)cc2)ncc1N ?
9.66

pIC50 for Cc1cc(/C=C/C#N)cc(C)c1Nc1ncc(N)c(Nc2ccc(C#N)cc2)n1 ?
8.77

pIC50 for Cc1cc(/C=C/C#N)cc(C)c1Nc1nc(Nc2ccc(C#N)cc2)ncc1[N+](=O)[O-] ?
9.64

pIC50 for Cc1cc(/C=C/C#N)cc(C)c1-n1cnc2cnc(Nc3ccc(C#N)cc3)nc21 ?
9.70

pIC50 for Cc1cc(/C=C/C#N)cc(C)c1Nc1ccnc(Nc2ccc(C#N)cc2)n1 ?
9.70

pIC50 for Cc1cc(/C=C/C#N)cc(C)c1Nc1ncc([N+](=O)[O-])c(Nc2ccc(C#N)cc2)n1 ?
9.21

pIC50 for Cc1cc(/C=C/C#N)cc(C)c1Nc1nc(Nc2ccc(C#N)cc2)c2nc[nH]c2n1 ?
9.51
